Source listed as patent US11945796B2.

Target: human SARM1(50-724) (Homo sapiens)
Construct: 40 nM human SARM1(50-724)
Sequence (Q6SZW1 50-724): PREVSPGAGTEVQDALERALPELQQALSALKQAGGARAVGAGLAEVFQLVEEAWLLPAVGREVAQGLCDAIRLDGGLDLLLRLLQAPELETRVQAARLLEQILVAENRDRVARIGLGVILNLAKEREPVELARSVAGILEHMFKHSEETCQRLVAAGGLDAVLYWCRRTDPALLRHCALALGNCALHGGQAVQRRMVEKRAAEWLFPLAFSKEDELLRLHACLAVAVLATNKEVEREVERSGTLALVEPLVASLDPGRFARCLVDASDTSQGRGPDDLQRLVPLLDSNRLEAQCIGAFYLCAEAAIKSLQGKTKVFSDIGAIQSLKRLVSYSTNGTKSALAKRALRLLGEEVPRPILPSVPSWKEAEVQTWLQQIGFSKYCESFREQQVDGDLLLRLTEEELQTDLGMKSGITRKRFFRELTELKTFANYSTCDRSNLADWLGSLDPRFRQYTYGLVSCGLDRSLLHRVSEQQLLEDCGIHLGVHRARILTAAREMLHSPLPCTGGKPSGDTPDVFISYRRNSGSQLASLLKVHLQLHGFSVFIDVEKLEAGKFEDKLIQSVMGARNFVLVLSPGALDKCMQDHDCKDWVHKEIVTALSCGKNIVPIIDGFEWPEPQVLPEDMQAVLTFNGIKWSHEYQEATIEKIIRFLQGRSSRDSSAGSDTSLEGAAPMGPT
Assay: SARM1 NADase biochemical assay (HPLC peak areas of NAD and NAM)
Conditions: 50 μM compound; NAM peak area; read-out: Avg NAM % inhibition at 50 μM
inhibition at 50 µM listing for selected molecules.

| structure_as_smiles | inhibition at 50 µM |
| --- | --- |
| O=C(CCc1cc(F)ccc1F)Nc1ccn(Cc2ccncc2)n1 | 51 to 100% |
| COc1ccc(C(=O)Nc2ccn(Cc3ccncc3)n2)cc1 | 0 to 50% |
| c1cc(Cn2ccc(NC3CC3)n2)ccn1 | 0 to 50% |
| O=C(Nc1ccn(Cc2ccncc2)n1)c1ccc2c(c1)CCC2 | 0 to 50% |
| Cc1cccc(C(=O)Nc2ccn(Cc3ccncc3)n2)c1 | 0 to 50% |

**Q:** What value of inhibition at 50 µM has been reported for the following molecule? CNc1ccn(Cc2ccncc2)n1
**A:** 0 to 50%
